This collection of values is drawn from ChEMBL document CHEMBL1201862.

Exercise: state measured GI50 for each of the compounds provided.
Test system: MDA-MB-435
Assay: NCI tumour cell line growth inhibition, 48 h
Counter-ions that a name gives are not always drawn. Calls of active or inactive are those of the source. Cut-off read from the data, not from the text of the source: active = GI50 up to about 1.1 µM and inactive = higher.

Form field: reported GI50 of CC(C)C1C(=O)N(c2c(F)c(F)c(F)c(F)c2F)C(=S)N1CC[S+]([O-])c1ccccc1 (stereo not drawn) 17.5 µM (inactive)

Form field: reported GI50 of `C/C=C(/C)c1cnc(CC(C)C)c(=O)[nH]1` > 100 µM (inactive)

Form field: reported GI50 of CNNCc1ccc(C(=O)NC(C)C)cc1 [PROCARBAZINE HYDROCHLORIDE] > 379 µM (inactive)
